- ASSAY_INFO: in vivo
- ASSAY_CONDITIONS: Sprague-Dawley, rat
- Description: Volume of distribution in Sprague-Dawley rat
ASSAY_ENDPOINT: Vd (L/kg)
Expressed in L/kg, but write only the number.

- N#Cc1cc(-c2ccc(Cl)cc2)c(-c2ccc(Cl)cc2Cl)nc1Oc1ccc(F)c(F)c1: 1.5

Name the recorded Vd for CN(C)NC(=O)c1cc(-c2ccc(Cl)cc2)c(-c2ccc(Cl)cc2Cl)nc1Oc1ccc(F)c(F)c1 . 6.7

* * *

- ASSAY_INFO: in vivo
- ASSAY_CONDITIONS: Sprague-Dawley, rat, brain, iv
- Description: Ratio of drug level in brain to plasma in iv dosed Sprague-Dawley rat after 4 hrs
ASSAY_ENDPOINT: Kp at 4 h
Reply with the value as a number alone.

• N#Cc1cc(-c2ccc(Cl)cc2)c(-c2ccc(Cl)cc2Cl)nc1Oc1ccc(F)c(F)c1 = 0.61

Consider the compound CN(C)NC(=O)c1cc(-c2ccc(Cl)cc2)c(-c2ccc(Cl)cc2Cl)nc1Oc1ccc(F)c(F)c1 and give its measured Kp at 4 h. 3

Numbers sourced from ChEMBL document CHEMBL1139131.
